Origin of values: patent US20240241135A1

target or system: T1, recombinant human regenerating islet-derived protein 1α (REG1A) (human, UniProt P05451 23-166, limits assumed)
T1 construct: also called recombinant human REG1A; recombinant REG1A
T1 sequence (looked up): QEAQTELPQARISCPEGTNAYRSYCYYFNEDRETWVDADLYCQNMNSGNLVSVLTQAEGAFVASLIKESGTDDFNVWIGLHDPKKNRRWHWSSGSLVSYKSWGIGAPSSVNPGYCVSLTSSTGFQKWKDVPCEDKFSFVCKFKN
experiment summary: sandwich ELISA; capture 25F3C4; REG1A 0 ng/mL (blank)
measured parameter: OD value (OD)
The reply should be a number in OD, with the unit left off.

Which OD value reading was recorded for the binder antibody 12F12A10 (antibody, V domains shown, Mouse monoclonal from hybridoma, stated mouse IgG1/Kappa; also called 12F12A10-biotin; Antibody 2) VH: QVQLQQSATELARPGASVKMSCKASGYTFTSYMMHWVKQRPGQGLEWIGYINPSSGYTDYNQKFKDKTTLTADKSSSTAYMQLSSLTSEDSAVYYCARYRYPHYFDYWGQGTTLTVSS VL: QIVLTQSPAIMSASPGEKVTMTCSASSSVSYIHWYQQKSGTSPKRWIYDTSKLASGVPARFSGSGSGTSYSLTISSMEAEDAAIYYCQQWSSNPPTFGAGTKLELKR ? 0.093

Sample antibody 4H8F1 (antibody, V domains shown, Mouse monoclonal from hybridoma, stated mouse IgG1/Kappa; also called 4H8F1-biotin; Antibody 1) VH: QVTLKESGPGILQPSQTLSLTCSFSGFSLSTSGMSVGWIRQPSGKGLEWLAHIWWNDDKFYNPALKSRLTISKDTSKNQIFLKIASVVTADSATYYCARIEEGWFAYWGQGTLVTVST VL: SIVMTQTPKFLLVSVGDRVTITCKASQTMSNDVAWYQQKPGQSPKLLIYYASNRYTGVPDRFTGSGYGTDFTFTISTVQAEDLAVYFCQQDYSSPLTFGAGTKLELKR — what was its OD value? 0.076

Fill in the blank: the reported OD value of antibody 21B11D2 (antibody, mouse IgG2b, kappa, V domains shown, Mouse monoclonal from hybridoma, stated mouse IgG1/Kappa; Used unlabelled as capture and biotin-labelled as detection antibody; also called 21B11D2-biotin) VH: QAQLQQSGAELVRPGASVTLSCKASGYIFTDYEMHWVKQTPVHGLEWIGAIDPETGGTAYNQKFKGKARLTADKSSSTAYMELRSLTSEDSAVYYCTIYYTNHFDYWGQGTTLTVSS VL: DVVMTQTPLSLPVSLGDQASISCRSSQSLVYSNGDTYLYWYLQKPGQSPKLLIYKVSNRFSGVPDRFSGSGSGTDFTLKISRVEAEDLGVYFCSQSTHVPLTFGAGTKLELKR is ____. 0.068

Value lookup for OD value; key = antibody 11D11B11 (antibody, mouse IgG2a, kappa, V domains shown, Mouse monoclonal from hybridoma, stated mouse IgG1/Kappa; Used unlabelled as capture and biotin-labelled as detection antibody; also called 11D11B11-biotin) VH: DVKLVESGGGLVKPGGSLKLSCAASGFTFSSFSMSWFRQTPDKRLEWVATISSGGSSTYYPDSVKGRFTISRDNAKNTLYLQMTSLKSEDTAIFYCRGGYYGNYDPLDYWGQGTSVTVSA VL: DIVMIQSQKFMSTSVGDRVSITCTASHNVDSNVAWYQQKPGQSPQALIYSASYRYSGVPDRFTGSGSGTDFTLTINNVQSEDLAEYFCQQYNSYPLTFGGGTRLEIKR 0.074
